Hello, the source for this data is paper PMC7588595, in case you need it.

Target: human AspH (His6-AspH315–758) (Homo sapiens, UniProt Q12797)
Construct: N-Terminally His6-tagged human AspH315–758 (His6-AspH315–758) was produced in Escherichia coli BL21 (DE3) cells; made in house; host or cells: Escherichia coli BL21 (DE3), pET-28a(+) vector
Assay: SPE-MS AspH inhibition assay (hFX-CP101-119 substrate hydroxylation)
Format: biochemical
Settings: AspH-inhibitor screening, Plate 1-duplicate, substrate conversion
Could you label it Criterion met if measured Plate 1-duplicate (% conversion) is 50% or higher, and Criterion not met otherwise?

Worked examples, 3 compounds total:
[
  {
    "molecularString": "O=P(O)(O)C(O)(Cn1ccnc1)P(=O)(O)O",
    "classAssignment": "Criterion not met"
  },
  {
    "molecularString": "CC(=O)Nc1cccc(-n2c(=O)n(C3CC3)c(=O)c3c(Nc4ccc(I)cc4F)n(C)c(=O)c(C)c32)c1",
    "classAssignment": "Criterion met"
  },
  {
    "molecularString": "CO[C@H]1C[C@@H]2CC[C@@H](C)[C@@](O)(O2)C(=O)C(=O)N2CCCC[C@H]2C(=O)O[C@H]([C@H](C)C[C@@H]2CC[C@@H](OC(=O)C(C)(CO)CO)[C@H](OC)C2)CC(=O)[C@H](C)/C=C(\\C)[C@@H](O)[C@@H](OC)C(=O)[C@H](C)C[C@H](C)/C=C/C=C/C=C/1C",
    "classAssignment": "Criterion not met"
  }
]

Note: attention shifts to another entry.
query: Given the entry Nc1nc(OCc2cc(Br)cs2)c2[nH]cnc2n1 , answer whether its Plate 1-duplicate (% conversion) meets or surpasses 50%.
result: Criterion not met

----------
Below, each of the compounds is paired with its reported Plate 1-duplicate (% conversion) value.
Biological target: human AspH (His6-AspH315–758) (Homo sapiens, UniProt Q12797)
Construct: N-Terminally His6-tagged human AspH315–758 (His6-AspH315–758) was produced in Escherichia coli BL21 (DE3) cells; made in house; host or cells: Escherichia coli BL21 (DE3), pET-28a(+) vector
Assay: SPE-MS AspH inhibition assay (hFX-CP101-119 substrate hydroxylation)
Type: biochemical
Details: AspH-inhibitor screening, Plate 1-duplicate, substrate conversion
Structures can show the parent of a compound that is named as a salt.
Numbers only here, please. The scale is %.

[
  {
    "compound": "Cc1cc(C(C)Nc2ccccc2)c2nc(N3CCOCC3)cc(=O)n2c1 (stereo not shown) [TGX-221]",
    "unitAbbreviation": "%",
    "measuredNumber": 51.95
  }
]

query: Fill in the blank: the reported Plate 1-duplicate (% conversion) of CN(C)CCOc1ccc(/C(=C(/CCCl)c2ccccc2)c2ccccc2)cc1 [Toremifene citrate] is ____.
result: 14.37

----------
Target: human AspH (His6-AspH315–758) (Homo sapiens, UniProt Q12797)
Construct: N-Terminally His6-tagged human AspH315–758 (His6-AspH315–758) was produced in Escherichia coli BL21 (DE3) cells; made in house; host or cells: Escherichia coli BL21 (DE3), pET-28a(+) vector
Assay: SPE-MS AspH inhibition assay (hFX-CP101-119 substrate hydroxylation)
Format: biochemical
Conditions: read-out: IC50 at 200 μM 2OG; 200 μM 2OG instead of 3 μM 2OG
metricName: IC50 (µM)
Answer format: numeric, µM implied, no suffix.

Some entries whose results are on file:
[
  {
    "compound": "CO[C@@H]1[C@H](N(C)C(=O)c2ccccc2)C[C@H]2O[C@]1(C)n1c3ccccc3c3c4c(c5c6ccccc6n2c5c31)C(=O)NC4 [Midostaurin, reference compound]",
    "assaySystem": "human AspH (His6-AspH315–758) (Homo sapiens, UniProt Q12797)",
    "measuredNumber": 12.4
  },
  {
    "compound": "O=C(/C=C/c1cccc(S(=O)(=O)Nc2ccccc2)c1)NO [Belinostat, reference compound]",
    "assaySystem": "human AspH (His6-AspH315–758) (Homo sapiens, UniProt Q12797)",
    "measuredNumber": 11.2
  },
  {
    "compound": "COc1c/c(=C2\\C=c3ccccc3=N2)[nH]/c1=C\\c1[nH]c(C)cc1C.CS(=O)(=O)O [Obatoclax, reference compound]",
    "assaySystem": "human AspH (His6-AspH315–758) (Homo sapiens, UniProt Q12797)",
    "measuredNumber": 16.4
  },
  {
    "compound": "O=C(O)c1ccnc(C(=O)O)c1 [2,4-PDCA, Pyridine-2,4-dicarboxylic acid, reference compound]",
    "assaySystem": "human AspH (His6-AspH315–758) (Homo sapiens, UniProt Q12797)",
    "measuredNumber": 0.1
  },
  {
    "compound": "O=C(CCCCCCC(=O)Nc1ccc([C@H]2O[C@@H](CSc3nc(-c4ccccc4)c(-c4ccccc4)o3)C[C@@H](c3ccc(CO)cc3)O2)cc1)NO [Tubacin, reference compound]",
    "assaySystem": "human AspH (His6-AspH315–758) (Homo sapiens, UniProt Q12797)",
    "measuredNumber": 5.69
  }
]

query: Please look up its IC50: Cc1cc2c(C(C)C)c(O)c(O)c(C=O)c2c(O)c1-c1c(C)cc2c(C(C)C)c(O)c(O)c(C=O)c2c1O [(R)-Gossypol, reference compound]
result: 0.25

query: Quick one: IC50 of CC1(C)CCC(CN2CCN(c3ccc(C(=O)NS(=O)(=O)c4ccc(NCC5CCOCC5)c([N+](=O)[O-])c4)c(Oc4cnc5[nH]ccc5c4)c3)CC2)=C(c2ccc(Cl)cc2)C1 [Venetoclax, reference compound] ?
result: 1.52

query: Which value of IC50 has been reported for CC1(C)CCC(c2ccc(Cl)cc2)=C(CN2CCN(c3ccc(C(=O)NS(=O)(=O)c4ccc(N[C@H](CCN5CCOCC5)CSc5ccccc5)c(S(=O)(=O)C(F)(F)F)c4)cc3)CC2)C1 [Navitoclax, reference compound] in the records?
result: 1.33

query: Using the record for CCCS(=O)(=O)Nc1ccc(F)c(C(=O)c2c[nH]c3ncc(-c4ccc(Cl)cc4)cc23)c1F [Vemurafenib, reference compound] , report its IC50.
result: 15.1

query: Requested field: IC50. Item: CN(C)CC[C@H](CSc1ccccc1)Nc1ccc(S(=O)(=O)NC(=O)c2ccc(N3CCN(Cc4ccccc4-c4ccc(Cl)cc4)CC3)cc2)cc1[N+](=O)[O-] [ABT-737, reference compound]
result: 4.47

----------
Biological target: human AspH (His6-AspH315–758) (Homo sapiens, UniProt Q12797)
Construct: N-Terminally His6-tagged human AspH315–758 (His6-AspH315–758) was produced in Escherichia coli BL21 (DE3) cells; made in house; host or cells: Escherichia coli BL21 (DE3), pET-28a(+) vector
Experiment: SPE-MS AspH inhibition assay (hFX-CP101-119 substrate hydroxylation)
Assay type: biochemical
Conditions: AspH-inhibitor screening, 384-well Plate 1
Counter-ions that a name gives are not always drawn.
metricName: Plate 1 (% inhibition) (%)
Form entry: value (%) — number only.

The examples below pair each entry with its known result.
[
  {
    "molecule": "O=[N+]([O-])c1ccc2c(c1)S(=O)(=O)C=C2",
    "Plate 1 (% inhibition) / %": 9.52
  },
  {
    "molecule": "COCCNCc1ccc(-c2cc3nccc(Oc4ccc(NC(=S)NC(=O)Cc5ccc(F)cc5)cc4F)c3s2)nc1",
    "Plate 1 (% inhibition) / %": 74.52
  },
  {
    "molecule": "C=CC(=O)Nc1cc2c(Nc3ccc(F)c(Cl)c3)ncnc2cc1OCCCN1CCOCC1",
    "Plate 1 (% inhibition) / %": -58.69
  }
]

query: For Cc1cccc(-c2nn3c(c2-c2ccnc4ccc(C(N)=O)cc24)CCC3)n1 , what is its reported Plate 1 (% inhibition)?
result: 5.18

query: So what's the measured Plate 1 (% inhibition) for this one? COc1ccc(-c2ccc3c(N4CCOC[C@@H]4C)nc(N4CCOC[C@@H]4C)nc3n2)cc1CO
result: 0.34

query: I am curious: what Plate 1 (% inhibition) value has been reported for CC[C@]1(O)C[C@@H]2CN(CCc3c([nH]c4ccccc34)[C@@](C(=O)OC)(c3cc4c(cc3OC)N(C)[C@H]3[C@@](O)(C(=O)OC)[C@H](OC(C)=O)[C@]5(CC)C=CCN6CC[C@]43[C@@H]65)C2)C1 [Vinblastine sulfate] ?
result: -22.64

query: Which Plate 1 (% inhibition) is listed for N#Cc1ccc(C(c2ccc(C#N)cc2)n2cncn2)cc1 ?
result: 6.85

----------
Molecular target: human AspH (His6-AspH315–758) (Homo sapiens, UniProt Q12797)
Construct: N-Terminally His6-tagged human AspH315–758 (His6-AspH315–758) was produced in Escherichia coli BL21 (DE3) cells; made in house; host or cells: Escherichia coli BL21 (DE3), pET-28a(+) vector
Sequence (Q12797 315-758): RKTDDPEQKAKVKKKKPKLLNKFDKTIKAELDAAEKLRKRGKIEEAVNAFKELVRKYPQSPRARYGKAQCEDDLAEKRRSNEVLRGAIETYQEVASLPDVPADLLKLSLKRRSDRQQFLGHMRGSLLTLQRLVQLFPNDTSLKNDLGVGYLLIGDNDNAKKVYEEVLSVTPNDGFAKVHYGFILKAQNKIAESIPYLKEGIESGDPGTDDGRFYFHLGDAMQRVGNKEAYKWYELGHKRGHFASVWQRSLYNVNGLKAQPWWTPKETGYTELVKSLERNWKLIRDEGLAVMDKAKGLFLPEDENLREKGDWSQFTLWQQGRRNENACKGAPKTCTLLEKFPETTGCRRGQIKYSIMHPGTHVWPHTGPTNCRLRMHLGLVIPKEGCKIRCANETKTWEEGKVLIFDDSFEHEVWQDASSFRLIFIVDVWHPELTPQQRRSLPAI
Assay: SPE-MS AspH inhibition assay (hFX-CP101-119 substrate hydroxylation)
Assay type: biochemical
Conditions: AspH-inhibitor screening, 384-well Plate 1
Where a name gives a salt, the structure may show the parent alone.
# key: entry, value: Plate 1 (% inhibition)
Lab book: enter the figure in %, no units written.

[
  {
    "molecule": "COC(=O)C[C@](O)(CCCC(C)(C)O)C(=O)O[C@@H]1C(OC)=C[C@]23CCCN2CCc2cc4c(cc2[C@H]13)OCO4 [Homoharringtonine]",
    "measuredNumber": 6.00
  }
]

query: What value of measured Plate 1 (% inhibition) is listed for C[C@@H](C(=O)O)c1ccc(-c2ccccc2)c(F)c1 [(R)-Flurbiprofen (Tarenflurbil)] ?
result: 10.59

query: Plate 1 (% inhibition) for COc1cccc2c1C(=O)c1c(O)c3c(c(O)c1C2=O)C[C@@](O)(C(=O)CO)C[C@@H]3O[C@H]1C[C@H](N)[C@@H](O)[C@H](C)O1 [Epirubicin hydrochloride] ?
result: -8.14

query: Look up Plate 1 (% inhibition) for this molecule: CC(C)(C)Cn1c(N)nc2ccc(-c3[nH]c(C(C)(C)C)nc3-c3ccc(F)cc3)nc21 [LY2228820 (CP868569)]
result: -13.39

query: Which measured Plate 1 (% inhibition) value corresponds to CC[C@H](CC#N)OC(=O)N[C@@H](C)c1cccc(NC(=O)Nc2ccc(-c3cnco3)c(OC)c2)c1 [AVN944] ?
result: -7.04

query: Field request: Plate 1 (% inhibition) | item: CO[C@H]1C[C@@H]2CC[C@@H](C)[C@@](O)(O2)C(=O)C(=O)N2CCCC[C@H]2C(=O)O[C@H]([C@H](C)C[C@@H]2CC[C@@H](OCCO)[C@H](OC)C2)CC(=O)[C@H](C)/C=C(\C)[C@@H](O)[C@@H](OC)C(=O)[C@H](C)C[C@H](C)/C=C/C=C/C=C/1C [Everolimus]
result: -18.20

query: Which value of Plate 1 (% inhibition) has been reported for O=C(NC[C@H](O)CO)c1ccncc1Nc1ccc(I)cc1F [AS703026_Pimasertib] in the records?
result: 12.00
